Test: splicing luciferase reporter signal modulators, primary screen, spliceosome inhibition project, cell-based, HEK293, splice +/- reporter (AID 1101);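 further: HEK293 cells carrying a splicing-competent luciferase reporter gene; test concentration not given here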
Conditions: luminescence, 24 h, higher = more signal, called active from +8 up or from −8 down
Classify on z-score using bin 1: < -0.2; bin 2: ≥ -0.2 and < 0.3; bin 3: ≥ 0.3

compound	answer_label
CCOC(=O)[C@H](CC(C)C)NC(=O)CCC1CC(OC(=O)NCCc2ccc(F)cc2)CC2(CCCC(COC(=O)NCC3CCCCC3)O2)O1 (some centres undefined)	bin 2

// switching to the query compound
[ask] Class (by measured z-score) for `COc1ccc(O[C@H]2C=C[C@@H](c3ccccc3)O[C@@H]2CON=C(C)C)cc1`
[reply] bin 3

----------
System: Inhibin beta A chain (activin A)
Experiment: INHBA (activin A) binders on microarrays, primary screen, biochemical, small-molecule microarray, 635 nm fluorescence scan (AID 1107);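 further: mouse activin A protein probed at 4.33 µg/mL on printed slides; score merges bound-protein fluorescence near 667 nm with spot signal-to-noise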
Conditions: small-molecule microarray binding, higher = more signal
metric_name: composite z-score
One number for each entry.

Observe how each entry below is paired with its result.
molecule	composite z-score
C[n+]1ccc(-c2ccc(CO)cc2)cc1	2.16
COC(=O)CC=C[C@@H](C)[C@H](OCc1cccc(-c2ccccc2)c1)C1CCCCC1	1.97

Hey, quick one: what's composite z-score for each of these?
1. C#CCCCON=C1C[C@@H](O)[C@@H](O)[C@@H]2[C@@H]3C(=O)N(Cc4ccccc4)C(=O)[C@@H]3CC[C@@H]12
2. CC(C)=NO[C@H](C)c1cn([C@H](CO)Cc2ccccc2)nn1

[reply]
1. 0.359
2. 0.576

Provide the reported composite z-score of each entry below, same order.
1. O=C1CCCC=C1C(O)CCOC(c1ccccc1)(c1ccccc1)c1ccccc1 (stereo unspecified)
2. CO[C@H]1COC(=O)CC=C[C@@H](C)[C@H](OC)COC(=O)[C@@H]2CCCN2C(=O)CC=C[C@@H]1C
3. CO[C@H](C1CCCCC1)[C@H](C)C=CCC(=O)OCCCc1ccccc1
4. COCOc1ccc(Br)cc1C(=O)[C@@H]1O[C@H]1c1cccc(OC)c1
5. O=C1C[C@@H](O)[C@@H](O)[C@@H]2[C@@H]3C(=O)N(c4cccc(Oc5ccccc5)c4)C(=O)[C@@H]3CC[C@H]12

[reply]
[0.874, 1.13, 0.332, 0.849, -0.173]

Batch of 4 molecules: report composite z-score for each.
1. C#CCCCON=C1C[C@@H](O)[C@@H](O)[C@@H]2[C@@H]3C(=O)N(c4cccc(Oc5ccccc5)c4)C(=O)[C@@H]3CC[C@H]12
2. CCOC(=O)[C@H](Cc1ccccc1)NC(=O)CCC1CC(OC(=O)NCCc2ccc(F)cc2)CC2(CCCC(COC(=O)NCC3CCCCC3)O2)O1 (stereo partly specified)
3. CCOC(=O)[C@H](CC(C)C)NC(=O)CCC1CC(OC(=O)NCCc2ccc(F)cc2)CC2(CCCC(COC(=O)NCCc3ccccc3OC)O2)O1 (stereo partly specified)
4. O=C1[C@H]2[C@H]3[C@H](O)[C@H](O)CC(=NOCc4ccccc4)[C@H]3CC[C@H]2C(=O)N1Cc1ccc2c(c1)OCO2

[reply]
1: -0.69; 2: 0.0408; 3: -0.0274; 4: 0.157

----------
Experiment: osmotic lysis modulators in infected erythrocytes, primary screen, PSAC antagonist project, cell-based, P. falciparum Indochina, OD700, 3 h (AID 1156)
Conditions: higher = more signal, called active from +8 up or from −8 down
metric_name: z-score
Answers are plain numbers.

// below: answered compounds
compound	z-score
COC(=O)CC=C[C@@H](C)[C@@H](C=NOCC[C@@H]1C=C[C@H](OC(C)=O)[C@@H](COC(C)=O)O1)OC	-0.5
CCO[C@H](c1cc(OC)cc([N+](=O)[O-])c1OC)[C@H](C)C=CCC(=O)OC	-0.361
COC(=O)[C@H](C)NC(=O)CCC1CC(OC(=O)NCCc2ccc(F)cc2)CC2(CCCC(COC(=O)NCCC(C)C)O2)O1 (stereo not given in full)	0.0444
O=C(NN=C1C[C@@H](O)[C@@H](O)[C@@H]2[C@@H]3C(=O)N(C[C@@H]4CCCO4)C(=O)[C@@H]3CC[C@H]12)OCc1ccccc1	0.284
CC(C)CON=C1C[C@@H](O)[C@@H](O)[C@@H]2[C@@H]3C(=O)N(C4CCCCC4)C(=O)[C@@H]3CC[C@H]12	0.168
CC(C)=CCCC(C)=CCON=C1C[C@@H](O)[C@@H](O)[C@@H]2[C@@H]3C(=O)N(c4ccc(F)cc4F)C(=O)[C@@H]3CC[C@H]12	2.8
Cc1ccc(S(=O)(=O)n2c3ccccc3c3nnc(C(=O)c4ccccc4)nc32)cc1	-0.0784
C=COC[C@@H]1CN2[C@@H](CC[C@@H](C)[C@@H]2c2ccc(Br)cc2)C(=O)O1	0.429

The following compounds each have a reported value; give each one's z-score.
1. COC(=O)CC=C[C@@H](C)[C@@H]1C=C[C@H](O)[C@@H](CO)O1
2. CCOC(=O)[C@H](CC(C)C)NC(=O)CCC1CC(OC(=O)NCCc2ccc(F)cc2)CC2(CCCC(COC(=O)NCC(c3ccccc3)c3ccccc3)O2)O1 (stereo not given in full)
3. CCOC(=O)CCN1C(=O)[C@H]2[C@H]3[C@H](O)[C@H](O)CC(=NOCc4ccccc4)[C@H]3CC[C@H]2C1=O
4. C#CCCCON=C1C[C@@H](O)[C@@H](O)[C@@H]2[C@@H]3C(=O)N(c4ccc(F)cc4F)C(=O)[C@@H]3CC[C@H]12
5. CCCNC(=O)OC[C@H]1O[C@H](c2ccccc2)C=C[C@@H]1Oc1ccc(OC)cc1
6. O=c1n(Cc2cc3c(cc2Cl)OCO3)c(=O)n2n1CC[C@@H]1C(=NOCc3ccccc3)[C@H]3O[C@H]3[C@@H](O)[C@@H]12
7. CO[C@H]1COC(=O)CC=C[C@@H](C)[C@H](NS(=O)(=O)c2ccc(C)cc2)COC(=O)CCC[C@@H]1C

[reply]
[-0.27, 0.784, -0.35, 1.13, -0.353, 0.434, -0.883]

----------
Assay: PSAC antagonists in infected red cells, primary screen, cell-based, P. falciparum Indochina, OD700, 1 h (AID 1154)
Conditions: P. falciparum Indochina infected RBC osmotic lysis, higher = more signal, called active from +8 up or from −8 down
Answer each item with its documented z-score.
One number for each entry.

Worked cases, z-score given:
compound	z-score
O=C(NN=C1C[C@@H](O)[C@@H](O)[C@@H]2[C@@H]3C(=O)N(C[C@@H]4CCCO4)C(=O)[C@@H]3CC[C@@H]12)OCc1ccccc1	0.423
COC(=O)[C@H](C)NC(=O)CCC1CC(OC(=O)NCc2ccc3c(c2)OCO3)CC2(CCCC(COC(=O)NCC(c3ccccc3)c3ccccc3)O2)O1 (stereo partly drawn)	17.6

Here's the next entry for you.
Lab book: z-score of `CC(C)=CCCC(C)=CCON=C1C[C@@H](O)[C@@H](O)[C@@H]2[C@@H]3C(=O)N(C(C)(C)C)C(=O)[C@@H]3CC[C@@H]12` noted as 1.43

----------
Assay: basal RPMI8226 mitochondrial membrane potential changes, profiling panel, cell-based, JC-1 fluorescence, 24 h, 100 nL compound (AID 1169); further: test concentration not given here
Conditions: RPMI8226 myeloma, JC-1 mitochondrial potential fluorescence, higher = more signal
metric_name: z-score
Answers are plain numbers.

Worked cases, answers included:
molecule	measured_value
CCc1cc2c(nc1CC)CCN(CCC(C)=NOC[C@H]1O[C@H](c3ccccc3)C=C[C@@H]1Oc1ccc(OC)cc1)C2	-0.0846
O=C1C[C@@H](O)[C@@H](O)[C@@H]2[C@@H]3C(=O)N(Cc4ccc5c(c4)OCO5)C(=O)[C@@H]3CC[C@H]12	0.522
COC(=O)[C@H]1[C@@H](O)[C@@]2(O)c3ccccc3O[C@@]2(c2ccccc2)[C@@H]1c1ccccc1	-0.231

Batch: z-score for all items listed.
1. CC(C)=CCCC(C)=CCON=C1C[C@@H](O)[C@@H](O)[C@@H]2[C@@H]3C(=O)N(c4ccc(F)cc4F)C(=O)[C@@H]3CC[C@H]12
2. COc1ccc(O[C@H]2C=C[C@@H](c3ccccc3)O[C@@H]2CON=C2[C@H]3CCn4c(=O)n(-c5ccccc5)c(=O)n4[C@H]3[C@H](O)[C@@H]3O[C@H]23)cc1
3. CON=C[C@@H](C)[C@H](OCc1ccccc1)C(C)C
4. CCOC(=O)[C@H](CC(C)C)NC(=O)CCC1CC(OC(=O)NCc2cccc3ccccc23)CC2(CCCC(COC(=O)NCCCN3CCCC3=O)O2)O1 (some centres not stated)

[reply]
[-0.786, -0.921, -0.408, -0.555]

----------
Target: Dickkopf-related protein 1 (Homo sapiens) (UniProt O94907)
Sequence (O94907 whole entry, looked up): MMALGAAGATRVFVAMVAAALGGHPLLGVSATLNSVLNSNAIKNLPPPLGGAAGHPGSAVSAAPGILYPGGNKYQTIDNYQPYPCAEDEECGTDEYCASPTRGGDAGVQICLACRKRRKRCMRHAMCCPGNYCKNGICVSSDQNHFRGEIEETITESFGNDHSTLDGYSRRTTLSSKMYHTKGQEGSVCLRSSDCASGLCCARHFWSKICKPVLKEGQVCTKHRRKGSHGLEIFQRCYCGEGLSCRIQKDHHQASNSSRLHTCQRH
Assay: DKK1 binders on small-molecule microarrays, primary screen, biochemical, small-molecule microarray, 635 nm fluorescence scan (AID 1106);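 further: score merges emission near 667 nm with signal to noise over three replicate slides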
Conditions: DKK1 binding, higher = more signal
metric_name: composite z-score
Numbers only.

Study these solved cases before continuing.
molecule	composite z-score
CCCNC(=O)OC[C@H]1O[C@H](CCON=C(C)CCN2CCc3nc(CC)c(CC)cc3C2)C=C[C@@H]1Oc1ccc(OC)cc1	0.192
C=CC[C@@H]1C=C[C@H](ON=C(C)CCC(=O)OC[C@H]2O[C@H](C#Cc3ccccc3)C=C[C@@H]2Oc2ccc(C)cc2)[C@@H](CO)O1	0.606
O=C1[C@H]2[C@H]3[C@H](O)[C@H](O)CC(=NOC[C@@H](O)COCc4ccco4)[C@H]3CC[C@H]2C(=O)N1Cc1ccccc1	0.901

Below are 4 molecules. Give each one its composite z-score.
1. CCOC(=O)[C@H](CC(C)C)NC(=O)CCC1CC(OC(=O)NCCc2ccc(F)cc2)CC2(CCCC(COC(=O)NCCc3ccccc3OC)O2)O1 (some centres undefined)
2. CC(=O)OC[C@H]1O[C@@H](ON=C(C)CCN2CCCc3nc(C)c(C)cc32)[C@H](OC(C)=O)[C@@H](OC(C)=O)[C@@H]1OC(C)=O
3. CC(C)CCN1CCc2nc(COc3ccccc3)c3c(c2C1)CO[C@@H](C)C3
4. CC(C)(C)N1C(=O)[C@H]2[C@H]3[C@H](O)[C@H](O)CC(=O)[C@H]3CC[C@H]2C1=O

[reply]
0.526
0.855
-0.471
0.624
